B1: TRIM39 (parent)
chain: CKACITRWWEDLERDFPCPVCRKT

Variants of: B1
Assay: protein stability index of a GFP-peptide fusion (GPS, HEK-293T) (PSI 1-6); higher = more stable;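 further: lentivirally expressed fusions sorted by FACS into six bins by GFP to DsRed ratio, PSI derived from sequencing read proportions per bin multiplied by bin number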
Conditions: c terminus: a fixed tail appended
Readout Name: protein stability index

Examples with answers:
1) R14Y :: 3.48
2) P19W :: 2.1

Quick one: give me protein stability index for each item below, same order please.
1. W9K
2. E10W
3. D15M
4. V20E
5. D11W
6. R7N
7. C1N
8. R22Y

Key:
4.86
2.92
2.37
4.77
3.37
3.89
1.67
3.58
